systemTested: human PD-L1 expressed on cell surface (human, UniProt Q9NZQ7 19-290)
Sequence (Q9NZQ7 19-290 limits assumed): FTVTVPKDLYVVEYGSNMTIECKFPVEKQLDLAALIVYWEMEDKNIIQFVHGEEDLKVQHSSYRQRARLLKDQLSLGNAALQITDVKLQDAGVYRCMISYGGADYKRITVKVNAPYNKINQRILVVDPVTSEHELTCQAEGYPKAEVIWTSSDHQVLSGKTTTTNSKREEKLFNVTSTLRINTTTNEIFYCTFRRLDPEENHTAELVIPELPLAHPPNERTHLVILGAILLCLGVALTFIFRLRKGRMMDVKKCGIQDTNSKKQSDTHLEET
assayMethodText: cell-based or functional assay
testReadout: Internalization (%), FACS, 0.5 µg/ml, 2 h
Field: numeric (%). Do not append units.

// sample 32E2 (antibody, human IgG1, V domains shown) VH: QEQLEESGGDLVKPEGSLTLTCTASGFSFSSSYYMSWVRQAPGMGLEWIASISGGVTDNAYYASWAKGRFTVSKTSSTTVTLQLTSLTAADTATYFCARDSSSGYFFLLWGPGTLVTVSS VL: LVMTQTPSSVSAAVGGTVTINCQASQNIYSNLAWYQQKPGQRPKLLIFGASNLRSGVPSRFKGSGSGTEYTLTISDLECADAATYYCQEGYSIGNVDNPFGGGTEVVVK , its Internalization (%), FACS, 0.5 µg/ml, 2 h was 0.4

// Internalization (%), FACS, 0.5 µg/ml, 2 h lookup, binder = 74F4 (antibody, human IgG1, V domains shown) VH: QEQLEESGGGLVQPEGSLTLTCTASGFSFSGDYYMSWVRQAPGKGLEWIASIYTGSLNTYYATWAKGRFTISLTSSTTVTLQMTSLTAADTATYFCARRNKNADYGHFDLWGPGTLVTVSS VL: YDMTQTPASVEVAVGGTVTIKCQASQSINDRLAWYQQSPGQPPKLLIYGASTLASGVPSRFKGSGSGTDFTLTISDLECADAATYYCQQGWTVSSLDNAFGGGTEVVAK , result: 22.5

For 33E8 (antibody, human IgG1, V domains shown) VH: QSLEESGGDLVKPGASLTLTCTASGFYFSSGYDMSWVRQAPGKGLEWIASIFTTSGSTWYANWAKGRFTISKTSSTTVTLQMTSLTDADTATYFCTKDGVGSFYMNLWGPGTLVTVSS VL: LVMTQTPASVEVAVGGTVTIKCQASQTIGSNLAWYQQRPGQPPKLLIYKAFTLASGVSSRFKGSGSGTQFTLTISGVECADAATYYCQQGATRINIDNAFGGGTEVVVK the binder record lists Internalization (%), FACS, 0.5 µg/ml, 2 h as 22.8

Noted for 33H7 (antibody, human IgG1, V domains shown) VH: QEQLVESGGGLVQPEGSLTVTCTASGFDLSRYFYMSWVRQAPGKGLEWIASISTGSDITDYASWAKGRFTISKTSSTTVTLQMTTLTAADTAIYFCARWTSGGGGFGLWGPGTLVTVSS VL: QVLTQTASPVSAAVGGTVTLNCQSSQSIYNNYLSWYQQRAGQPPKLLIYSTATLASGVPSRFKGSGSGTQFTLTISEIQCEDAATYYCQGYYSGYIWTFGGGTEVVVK : its Internalization (%), FACS, 0.5 µg/ml, 2 h reads 17

Recorded result, 27A2 (antibody, human IgG1, V domains shown) VH: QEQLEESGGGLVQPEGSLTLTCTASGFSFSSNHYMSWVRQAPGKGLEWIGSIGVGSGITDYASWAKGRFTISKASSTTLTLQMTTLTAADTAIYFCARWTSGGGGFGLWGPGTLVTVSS VL: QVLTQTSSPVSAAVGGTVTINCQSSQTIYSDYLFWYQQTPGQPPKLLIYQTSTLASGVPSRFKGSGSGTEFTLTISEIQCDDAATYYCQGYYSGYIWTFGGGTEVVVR , Internalization (%), FACS, 0.5 µg/ml, 2 h: 15.5
